- System: A498
- PROTOCOL_TEXT: Growth inhibition of human A498 cells at 10 uM after 48 hrs by coulter counter analysis
- Format: functional
- ASSAY_CONDITIONS: A498, 48 h, read-out: GI
MEASURE: inhibition of growth at 10 µM

Recorded inhibition of growth at 10 µM, per entry:
- COMPOUND: "CCOC(=O)c1sc(NC(=O)CCN2CCOCC2)nc1C"
  inhibition of growth at 10 µM: "< 10%"
- COMPOUND: "CN1CCN(CCC(=O)Nc2nc(-c3ccccc3)cs2)CC1"
  inhibition of growth at 10 µM: "< 10%"
- COMPOUND: "CC(C(=O)Nc1nccs1)N1CCN(c2ccccc2)CC1 (centres undefined)"
  inhibition of growth at 10 µM: "< 10%"

Memo: Cc1csc(NC(=O)C(C)N2CCN(C)CC2)n1 (centres undefined) , reported inhibition of growth at 10 µM: < 10%

Looking up CCOC(=O)c1sc(NC(=O)C(C)N2CCOCC2)nc1C (centres undefined) , I see its inhibition of growth at 10 µM listed as < 10%

// field: inhibition of growth at 10 µM; key: Cc1csc(NC(=O)C(C)N2CCN(c3ccccc3)CC2)n1 (centres undefined) ; value = < 10%

The compound listed as O=C(CCN1CCN(c2ccccc2)CC1)Nc1nc(-c2ccccc2)cs1 shows inhibition of growth at 10 µM equal to 67.5%

Noted for CCOC(=O)c1sc(NC(=O)C(C)N2CCN(C)CC2)nc1C (centres undefined) : its inhibition of growth at 10 µM reads < 10%

inhibition of growth at 10 µM reading for Cc1cnc(NC(=O)CCN2CCN(c3ccccc3)CC2)s1 : < 10%

What the record says about CCOC(=O)c1sc(NC(=O)C(C)N(CC)CC)nc1C (centres undefined) : inhibition of growth at 10 µM is < 10%

The compound listed as CC(C(=O)Nc1nccs1)N1CCN(C)CC1 (centres undefined) has a reported inhibition of growth at 10 µM of < 10%

The recorded inhibition of growth at 10 µM for CCOC(=O)c1sc(NC(=O)CCN2CCN(C)CC2)nc1C is < 10%

Record CCOC(=O)c1sc(NC(=O)C(C)N2CCCCC2)nc1C (centres undefined) , field inhibition of growth at 10 µM: < 10%

According to the records, this compound O=C(CCCl)Nc1nc(-c2ccccc2)cs1 displays inhibition of growth at 10 µM of 78.4%

Lookup result for O=C(CN1CCN(c2ccccc2)CC1)Nc1nc(-c2ccccc2)cs1 ; measured inhibition of growth at 10 µM: 44.1%

Measured inhibition of growth at 10 µM, CCOC(=O)c1sc(NC(=O)CN(C)C)nc1C : < 10%

Item: Cc1cnc(NC(=O)CN2CCN(C)CC2)s1 | inhibition of growth at 10 µM: < 10%

The compound listed as CCOC(=O)c1sc(NC(=O)CCN2CCN(c3ccccc3)CC2)nc1C shows inhibition of growth at 10 µM equal to 12.8%

Measured inhibition of growth at 10 µM, Cc1cnc(NC(=O)CN2CCN(c3ccccc3)CC2)s1 : < 10%

---

- Test system: CAKI-1
- PROTOCOL_TEXT: Growth inhibition of human Caki1 cells at 10 uM after 48 hrs by coulter counter analysis
- Format: functional
- ASSAY_CONDITIONS: CAKI-1, 48 h, read-out: GI
MEASURE: inhibition of growth at 10 µM

- COMPOUND: "Cc1cnc(NC(=O)CN2CCN(c3ccccc3)CC2)s1"
  MEASURED_ON: "CAKI-1"
  inhibition of growth at 10 µM: "< 10%"
- COMPOUND: "CN1CCN(CCC(=O)Nc2nc(-c3ccccc3)cs2)CC1"
  MEASURED_ON: "CAKI-1"
  inhibition of growth at 10 µM: "15.9%"
- COMPOUND: "O=C(CCN1CCN(c2ccccc2)CC1)Nc1nc(-c2ccccc2)cs1"
  MEASURED_ON: "CAKI-1"
  inhibition of growth at 10 µM: "37.7%"
- COMPOUND: "Cc1csc(NC(=O)C(C)N2CCN(c3ccccc3)CC2)n1 (configuration not stated)"
  MEASURED_ON: "CAKI-1"
  inhibition of growth at 10 µM: "< 10%"

The measured inhibition of growth at 10 µM associated with CCOC(=O)c1sc(NC(=O)CCN2CCOCC2)nc1C reads < 10%

Record O=C(CN1CCN(c2ccccc2)CC1)Nc1nc(-c2ccccc2)cs1 . Reported inhibition of growth at 10 µM: 36.6%

CCOC(=O)c1sc(NC(=O)C(C)N2CCCCC2)nc1C (configuration not stated) has a reported inhibition of growth at 10 µM of 12.2%

Documented inhibition of growth at 10 µM of CCOC(=O)c1sc(NC(=O)CN(C)C)nc1C : < 10%

Consider CCOC(=O)c1sc(NC(=O)CCN2CCN(c3ccccc3)CC2)nc1C . Its measured inhibition of growth at 10 µM is < 10%

Short answer for CCOC(=O)c1sc(NC(=O)C(C)N2CCN(C)CC2)nc1C (configuration not stated) : inhibition of growth at 10 µM was < 10%

For reference, reported inhibition of growth at 10 µM for CC(C(=O)Nc1nccs1)N1CCN(C)CC1 (configuration not stated) stands at < 10%

Cc1cnc(NC(=O)CN2CCN(C)CC2)s1 yielded inhibition of growth at 10 µM of < 10%

---

# reported inhibition of growth at 10 µM; entries follow
- Test system: SK-MEL-5
- PROTOCOL_TEXT: Growth inhibition of human SK-MEL-5 cells at 10 uM after 48 hrs by coulter counter analysis
- Type: functional
- ASSAY_CONDITIONS: SK-MEL-5, 48 h, read-out: GI

- COMPOUND: "O=C(CN1CCN(c2ccccc2)CC1)Nc1nc(-c2ccccc2)cs1"
  inhibition of growth at 10 µM: "31.9%"
- COMPOUND: "CCOC(=O)c1sc(NC(=O)CCN2CCN(c3ccccc3)CC2)nc1C"
  inhibition of growth at 10 µM: "< 10%"
- COMPOUND: "CCOC(=O)c1sc(NC(=O)C(C)N2CCOCC2)nc1C (configuration not stated)"
  inhibition of growth at 10 µM: "< 10%"
- COMPOUND: "CN1CCN(CCC(=O)Nc2nc(-c3ccccc3)cs2)CC1"
  inhibition of growth at 10 µM: "< 10%"
- COMPOUND: "CCOC(=O)c1sc(NC(=O)C(C)N2CCCCC2)nc1C (configuration not stated)"
  inhibition of growth at 10 µM: "< 10%"
- COMPOUND: "CCOC(=O)c1sc(NC(=O)CN(C)C)nc1C"
  inhibition of growth at 10 µM: "< 10%"

Reported inhibition of growth at 10 µM of Cc1csc(NC(=O)C(C)N2CCN(C)CC2)n1 (configuration not stated) : 11.3%

---

- Test system: HCT-116
- PROTOCOL_TEXT: Growth inhibition of human HCT116 cells at 10 uM after 48 hrs by coulter counter analysis
- Assay type: functional
- ASSAY_CONDITIONS: HCT-116, 48 h, read-out: GI
MEASURE: inhibition of growth at 10 µM

Look over these answered cases.
- COMPOUND: "Cc1cnc(NC(=O)CCN2CCN(c3ccccc3)CC2)s1"
  TEST_RESULT: "< 10%"
- COMPOUND: "CCOC(=O)c1sc(NC(=O)C(C)N2CCCCC2)nc1C (configuration not stated)"
  TEST_RESULT: "< 10%"
- COMPOUND: "Cc1cnc(NC(=O)CN2CCN(c3ccccc3)CC2)s1"
  TEST_RESULT: "< 10%"
- COMPOUND: "CC(C(=O)Nc1nccs1)N1CCN(c2ccccc2)CC1 (configuration not stated)"
  TEST_RESULT: "< 10%"

Value of measured inhibition of growth at 10 µM for the entry Cc1csc(NC(=O)C(C)N2CCN(C)CC2)n1 (configuration not stated) : 30.1%

Entry CCOC(=O)c1sc(NC(=O)C(C)N2CCOCC2)nc1C (configuration not stated) ; inhibition of growth at 10 µM = < 10%

The compound O=C(CCCl)Nc1nc(-c2ccccc2)cs1 showed inhibition of growth at 10 µM equal to 78.3%

Reported inhibition of growth at 10 µM of CCOC(=O)c1sc(NC(=O)CCN2CCOCC2)nc1C : < 10%

So for O=C(CCN1CCN(c2ccccc2)CC1)Nc1nc(-c2ccccc2)cs1 , the logged inhibition of growth at 10 µM turned out to be 41.7%

Recorded result, Cc1cnc(NC(=O)CN2CCN(C)CC2)s1 , inhibition of growth at 10 µM: < 10%

Notebook: CCOC(=O)c1sc(NC(=O)C(C)N(CC)CC)nc1C (configuration not stated) , inhibition of growth at 10 µM read as < 10%

GET /value?item= O=C(CN1CCN(c2ccccc2)CC1)Nc1nc(-c2ccccc2)cs1 &field=inhibition of growth at 10 µM returns 17.7%

Each recorded value in this set is attributed to ChEMBL document CHEMBL2040727.
